# System: COR-L 105
# TEST_SUMMARY: relative viability (nuclei count vs DMSO), 5 days (fraction); higher = more cells survive
# TEST_SETTINGS: first compound 0.1265 µM

MOLECULE | TESTED_TARGET | relative viability
Cc1sc2c(c1C)C(c1ccc(Cl)cc1)=N[C@@H](CC(=O)OC(C)(C)C)c1nnc(C)n1-2 [JQ1] + CCNC(=O)c1noc(-c2cc(C(C)C)c(O)cc2O)c1-c1ccc(CN2CCOCC2)cc1 [Luminespib] (partner 0.01 µM) | COR-L 105 | 0.49
Cc1sc2c(c1C)C(c1ccc(Cl)cc1)=N[C@@H](CC(=O)OC(C)(C)C)c1nnc(C)n1-2 [JQ1] + Nc1ncn([C@H]2C[C@H](O)[C@@H](CO)O2)c(=O)n1 [Decitabine] (partner 2 µM) | COR-L 105 | 0.457

---

# System: NCI-H647
# TEST_SUMMARY: relative viability (nuclei count vs DMSO), 5 days (fraction); higher = more cells survive
# TEST_SETTINGS: first compound 0.1265 µM
Each entry below lists one item and its recorded relative viability value.
OBSERVATION_TYPE: relative viability

COMPOUND | ENDPOINT_VALUE
Cc1sc2c(c1C)C(c1ccc(Cl)cc1)=N[C@@H](CC(=O)OC(C)(C)C)c1nnc(C)n1-2 [JQ1] + Nc1ncn([C@H]2C[C@H](O)[C@@H](CO)O2)c(=O)n1 [Decitabine] (partner 2 µM) | 0.331
Cc1sc2c(c1C)C(c1ccc(Cl)cc1)=N[C@@H](CC(=O)OC(C)(C)C)c1nnc(C)n1-2 [JQ1] + CS(=O)(=O)CCNCc1ccc(-c2ccc3ncnc(Nc4ccc(OCc5cccc(F)c5)c(Cl)c4)c3c2)o1 [Lapatinib] (partner 2 µM) | 0.509
Cc1sc2c(c1C)C(c1ccc(Cl)cc1)=N[C@@H](CC(=O)OC(C)(C)C)c1nnc(C)n1-2 [JQ1] + Cc1nc(NC(=O)N2CCC[C@H]2C(N)=O)sc1-c1ccnc(C(C)(C)C(F)(F)F)c1 [Alpelisib] (partner 2 µM) | 0.596
Cc1sc2c(c1C)C(c1ccc(Cl)cc1)=N[C@@H](CC(=O)OC(C)(C)C)c1nnc(C)n1-2 [JQ1] + COc1cc2c(Oc3ccc(NC(=O)C4(C(=O)Nc5ccc(F)cc5)CC4)cc3F)ccnc2cc1OCCCN1CCOCC1 [Foretinib] (partner 0.25 µM) | 0.914
Cc1sc2c(c1C)C(c1ccc(Cl)cc1)=N[C@@H](CC(=O)OC(C)(C)C)c1nnc(C)n1-2 [JQ1] + C[C@]1(O)C[C@@H](c2nc(-c3ccc4ccc(-c5ccccc5)nc4c3)c3c(N)nccn32)C1 [Linsitinib] (partner 1 µM) | 0.754
Cc1sc2c(c1C)C(c1ccc(Cl)cc1)=N[C@@H](CC(=O)OC(C)(C)C)c1nnc(C)n1-2 [JQ1] + CC(C)C[C@H](NC(=O)[C@H](Cc1ccccc1)NC(=O)c1cnccn1)B(O)O [Bortezomib] (partner 0.002 µM) | 0.521

---

Let's look at some compounds and their measured relative viability.
# System: NCI-H1651
# TEST_SUMMARY: relative viability (nuclei count vs DMSO), 5 days (fraction); higher = more cells survive
# TEST_SETTINGS: first compound 15.81 µM

COMPOUND | relative viability
O=C(O)CCCCC(CCSCc1ccccc1)SCc1ccccc1 (stereo unspecified) [CPI-613] + CC(C)C[C@H](NC(=O)[C@H](Cc1ccccc1)NC(=O)c1cnccn1)B(O)O [Bortezomib] (partner 0.002 µM) | 0.9
O=C(O)CCCCC(CCSCc1ccccc1)SCc1ccccc1 (stereo unspecified) [CPI-613] + Cc1cc(Nc2cc(N3CCN(C)CC3)nc(Sc3ccc(NC(=O)C4CC4)cc3)n2)n[nH]1 [Tozasertib] (partner 0.1 µM) | 0.588
O=C(O)CCCCC(CCSCc1ccccc1)SCc1ccccc1 (stereo unspecified) [CPI-613] + CS(=O)(=O)CCNCc1ccc(-c2ccc3ncnc(Nc4ccc(OCc5cccc(F)c5)c(Cl)c4)c3c2)o1 [Lapatinib] (partner 2 µM) | 0.71
O=C(O)CCCCC(CCSCc1ccccc1)SCc1ccccc1 (stereo unspecified) [CPI-613] + C[C@@H](Oc1cc(-c2cnn(C3CCNCC3)c2)cnc1N)c1c(Cl)ccc(F)c1Cl [Crizotinib] (partner 1 µM) | 0.769
O=C(O)CCCCC(CCSCc1ccccc1)SCc1ccccc1 (stereo unspecified) [CPI-613] + Nc1ncn([C@H]2C[C@H](O)[C@@H](CO)O2)c(=O)n1 [Decitabine] (partner 2 µM) | 0.504
O=C(O)CCCCC(CCSCc1ccccc1)SCc1ccccc1 (stereo unspecified) [CPI-613] + C[C@]1(O)C[C@@H](c2nc(-c3ccc4ccc(-c5ccccc5)nc4c3)c3c(N)nccn32)C1 [Linsitinib] (partner 1 µM) | 0.92

---

# Tested on: NCI-H1666
# TEST_SUMMARY: relative viability (nuclei count vs DMSO), 5 days (fraction); higher = more cells survive
# TEST_SETTINGS: first compound 0.002 µM
Below is a list of entries, each paired with its recorded relative viability value.

COMPOUND | TESTED_TARGET | relative viability
CC(=O)O[C@@]12CO[C@@H]1C[C@H](O)[C@@]1(C)C(=O)[C@H](O)C3=C(C)[C@@H](OC(=O)[C@H](O)[C@@H](NC(=O)OC(C)(C)C)c4ccccc4)C[C@@](O)([C@@H](OC(=O)c4ccccc4)[C@H]21)C3(C)C [Docetaxel] + CC1(C)CCC(c2ccc(Cl)cc2)=C(CN2CCN(c3ccc(C(=O)NS(=O)(=O)c4ccc(N[C@H](CCN5CCOCC5)CSc5ccccc5)c(S(=O)(=O)C(F)(F)F)c4)cc3)CC2)C1 [Navitoclax] (partner 0.5 µM) | NCI-H1666 | 0.354
CC(=O)O[C@@]12CO[C@@H]1C[C@H](O)[C@@]1(C)C(=O)[C@H](O)C3=C(C)[C@@H](OC(=O)[C@H](O)[C@@H](NC(=O)OC(C)(C)C)c4ccccc4)C[C@@](O)([C@@H](OC(=O)c4ccccc4)[C@H]21)C3(C)C [Docetaxel] + Nc1nc2[nH]cc(CCc3ccc(C(=O)N[C@@H](CCC(=O)O)C(=O)O)cc3)c2c(=O)[nH]1 [Pemetrexed] (partner 0.2 µM) | NCI-H1666 | 0.801
CC(=O)O[C@@]12CO[C@@H]1C[C@H](O)[C@@]1(C)C(=O)[C@H](O)C3=C(C)[C@@H](OC(=O)[C@H](O)[C@@H](NC(=O)OC(C)(C)C)c4ccccc4)C[C@@](O)([C@@H](OC(=O)c4ccccc4)[C@H]21)C3(C)C [Docetaxel] + CC(=O)Nc1cccc(-n2c(=O)n(C3CC3)c(=O)c3c(Nc4ccc(I)cc4F)n(C)c(=O)c(C)c32)c1 [Trametinib] (partner 0.02 µM) | NCI-H1666 | 0.645

---

# Test system: SK-MES-1
# TEST_SUMMARY: relative viability (nuclei count vs DMSO), 5 days (fraction); higher = more cells survive
# TEST_SETTINGS: first compound 0.05 µM
Each entry falls into one class according to its relative viability; the ranges are class 1 = under 0.3, class 2 = from 0.3 up to 0.4, class 3 = 0.4 and over

MOLECULE | CLASS_ASSIGNMENT
COc1cc2nccc(Oc3ccc(NC(=O)Nc4cc(C)on4)c(Cl)c3)c2cc1OC [Tivozanib] + CC(=O)c1c(C)c2cnc(Nc3ccc(N4CCNCC4)cn3)nc2n(C2CCCC2)c1=O [Palbociclib] (partner 0.5 µM) | class 2
Nc1ccn([C@@H]2O[C@H](CO)[C@@H](O)[C@@H]2O)c(=O)n1 [Cytarabine] + Cc1cc(Nc2cc(N3CCN(C)CC3)nc(Sc3ccc(NC(=O)C4CC4)cc3)n2)n[nH]1 [Tozasertib] (partner 0.1 µM) | class 1
Nc1ccn([C@@H]2O[C@H](CO)[C@@H](O)[C@@H]2O)c(=O)n1 [Cytarabine] + Nc1nc2[nH]cc(CCc3ccc(C(=O)N[C@@H](CCC(=O)O)C(=O)O)cc3)c2c(=O)[nH]1 [Pemetrexed] (partner 0.2 µM) | class 2
Nc1ccn([C@@H]2O[C@H](CO)[C@@H](O)[C@@H]2O)c(=O)n1 [Cytarabine] + CS(=O)(=O)CCNCc1ccc(-c2ccc3ncnc(Nc4ccc(OCc5cccc(F)c5)c(Cl)c4)c3c2)o1 [Lapatinib] (partner 2 µM) | class 2
Nc1ccn([C@@H]2O[C@H](CO)[C@@H](O)[C@@H]2O)c(=O)n1 [Cytarabine] + CCNC(=O)c1noc(-c2cc(C(C)C)c(O)cc2O)c1-c1ccc(CN2CCOCC2)cc1 [Luminespib] (partner 0.01 µM) | class 2
COc1cc2nccc(Oc3ccc(NC(=O)Nc4cc(C)on4)c(Cl)c3)c2cc1OC [Tivozanib] + O=C(CCCCCCC(=O)Nc1ccccc1)NO [Vorinostat] (partner 1 µM) | class 3
Nc1ccn([C@@H]2O[C@H](CO)[C@@H](O)[C@@H]2O)c(=O)n1 [Cytarabine] + Nc1ncn([C@H]2C[C@H](O)[C@@H](CO)O2)c(=O)n1 [Decitabine] (partner 2 µM) | class 1
COc1cc2nccc(Oc3ccc(NC(=O)Nc4cc(C)on4)c(Cl)c3)c2cc1OC [Tivozanib] + C[C@@H](Oc1cc(-c2cnn(C3CCNCC3)c2)cnc1N)c1c(Cl)ccc(F)c1Cl [Crizotinib] (partner 1 µM) | class 3
Nc1ccn([C@@H]2O[C@H](CO)[C@@H](O)[C@@H]2O)c(=O)n1 [Cytarabine] + O=C(CCCCCCC(=O)Nc1ccccc1)NO [Vorinostat] (partner 1 µM) | class 3
